B1: Intersectin-1, residues 909 to 971; numbered along this chain, Q15811 (parent)
chain: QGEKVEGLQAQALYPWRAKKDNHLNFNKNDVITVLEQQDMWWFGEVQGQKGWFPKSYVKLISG

- Variants of: B1
- experiment: abundance fitness (aPCA) (normalised: wild type 0, dead -1); higher = more abundant; growth selection in yeast, the domain comes from the species named
- condition-info: Homo sapiens
abundance fitness vs -0.3: at or above is met, below is not met.

Below are worked cases with known answers.
R17K	not met
Q49N	not met
V58R	not met
G2E	met
M40T	met

Qu. // inclusive: abundance fitness at least -0.3? input: K50E
Ans. met

Qu. Is the recorded value of abundance fitness equal to or greater than -0.3 for this variant? L8Y
Ans. met

Qu. Item Q11S with abundance fitness of -0.3 or above?
Ans. met

Qu. Test whether the variant G2N records abundance fitness of -0.3 or higher.
Ans. met

Qu. Record E36C ; criterion: abundance fitness no lower than -0.3. Met?
Ans. met
